experiment: Bioequivalence / pharmacokinetic study of compound febantel tablets after single oral dose, plasma levels by UPLC–MS/MS; conditions: beagle, dog, AUC0–30, reference product (R), single oral tablet, 38 beagle dogs, fasting, mean ± SD
OUTCOME MEASURE: AUC(0-t) (ng·h/mL)

MOLECULE: COC(=O)Nc1nc2ccc([S+]([O-])c3ccccc3)cc2[nH]1 (stereo not shown)
OUTCOME MEASURE: AUC(0-t)
TEST VALUE: 2100

---

Each entry below lists one item and its recorded Accuracy value.
experiment: Stability of the analytes in beagle dog plasma (bench top, refrigerator, freeze–thaw, autosampler, short and long term storage); assay type: physicochemical; conditions: short term, −20°C, 48 h; dog plasma; HQC

COMPOUND: COC(=O)Nc1nc2ccc([S+]([O-])c3ccccc3)cc2[nH]1 (stereo not shown) [Qxfendazole, oxfendazole]
UNIT OF MEASUREMENT: %
Accuracy: 105.41

COMPOUND: CN1CCCN=C1/C=C/c1cccs1 [Pyrantel, pyrantel]
UNIT OF MEASUREMENT: %
Accuracy: 107.76

COMPOUND: COC(=O)Nc1nc2ccc(Sc3ccccc3)cc2[nH]1 [Fenbendazole, fenbendazole]
UNIT OF MEASUREMENT: %
Accuracy: 104.58

COMPOUND: O=C(C1CCCCC1)N1CC(=O)N2CCc3ccccc3C2C1 (stereo not shown) [Praziquantel, praziquantel]
UNIT OF MEASUREMENT: %
Accuracy: 108.18

---

assay: Stability of the analytes in beagle dog plasma (bench top, refrigerator, freeze–thaw, autosampler, short and long term storage); format: physicochemical; conditions: bench top, room temperature, 8 h; dog plasma; LQC (added 12 ng/mL PYR/OXF, 45 PRA, 6 FBT, 30 FEN); n = 5

MOLECULE: O=C(C1CCCCC1)N1CC(=O)N2CCc3ccccc3C2C1 (stereo not shown)
Mean stability sample ±SD / ng/mL: 44.28

MOLECULE: COC(=O)Nc1nc2ccc([S+]([O-])c3ccccc3)cc2[nH]1 (stereo not shown)
Mean stability sample ±SD / ng/mL: 12.08

MOLECULE: COC(=O)Nc1nc2ccc(Sc3ccccc3)cc2[nH]1
Mean stability sample ±SD / ng/mL: 28.75

MOLECULE: CN1CCCN=C1/C=C/c1cccs1
Mean stability sample ±SD / ng/mL: 11.30

---

Each entry below lists one item and its recorded Accuracy value.
experiment: Stability of the analytes in beagle dog plasma (bench top, refrigerator, freeze–thaw, autosampler, short and long term storage); assay type: physicochemical; settings: bench top, room temperature, 8 h; dog plasma; LQC; % of nominal concentration

COMPOUND: O=C(C1CCCCC1)N1CC(=O)N2CCc3ccccc3C2C1 (stereo not shown)
Accuracy (%): 98.41

COMPOUND: CN1CCCN=C1/C=C/c1cccs1
Accuracy (%): 94.15

COMPOUND: COC(=O)Nc1nc2ccc(Sc3ccccc3)cc2[nH]1
Accuracy (%): 95.83

COMPOUND: COC(=O)Nc1nc2ccc([S+]([O-])c3ccccc3)cc2[nH]1 (stereo not shown)
Accuracy (%): 100.65

---

assay: Bioequivalence / pharmacokinetic study of compound febantel tablets after single oral dose, plasma levels by UPLC–MS/MS; settings: beagle, dog, t1/2 (elimination half–life), reference product (R), single oral tablet, 38 beagle dogs, fasting, mean ± SD

COMPOUND: COC(=O)Nc1nc2ccc([S+]([O-])c3ccccc3)cc2[nH]1 (stereo not shown) [Qxfendazole, oxfendazole]
half-life, h: 4.17

---

Each entry below lists one item and its recorded Mean stability sample ±SD value.
assay: Stability of the analytes in beagle dog plasma (bench top, refrigerator, freeze–thaw, autosampler, short and long term storage); assay type: physicochemical; conditions: refrigerator, 4°C, 30 h; dog plasma; HQC; n = 5

MOLECULE: O=C(C1CCCCC1)N1CC(=O)N2CCc3ccccc3C2C1 (stereo not shown)
UNIT OF MEASUREMENT: ng/mL
Mean stability sample ±SD: 654.44
//
MOLECULE: COC(=O)Nc1nc2ccc([S+]([O-])c3ccccc3)cc2[nH]1 (stereo not shown)
UNIT OF MEASUREMENT: ng/mL
Mean stability sample ±SD: 174.31
//
MOLECULE: CN1CCCN=C1/C=C/c1cccs1
UNIT OF MEASUREMENT: ng/mL
Mean stability sample ±SD: 174.99
//
MOLECULE: COC(=O)Nc1nc2ccc(Sc3ccccc3)cc2[nH]1
UNIT OF MEASUREMENT: ng/mL
Mean stability sample ±SD: 438.32

---

assay: Stability of the analytes in beagle dog plasma (bench top, refrigerator, freeze–thaw, autosampler, short and long term storage); format: physicochemical; settings: short term, −20°C, 48 h; dog plasma; LQC

COMPOUND: COC(=O)Nc1nc2ccc(Sc3ccccc3)cc2[nH]1 [Fenbendazole, fenbendazole]
Accuracy, %: 103.13

COMPOUND: COC(=O)Nc1nc2ccc([S+]([O-])c3ccccc3)cc2[nH]1 (stereo not shown) [Qxfendazole, oxfendazole]
Accuracy, %: 98.29

COMPOUND: O=C(C1CCCCC1)N1CC(=O)N2CCc3ccccc3C2C1 (stereo not shown) [Praziquantel, praziquantel]
Accuracy, %: 100.34

COMPOUND: CN1CCCN=C1/C=C/c1cccs1 [Pyrantel, pyrantel]
Accuracy, %: 100.41

---

assay: in vivo; conditions: beagle, dog, po, t1/2 (elimination half–life)
Each entry below lists one item and its recorded half-life value.
OUTCOME MEASURE: half-life (h)

COMPOUND: O=C(C1CCCCC1)N1CC(=O)N2CCc3ccccc3C2C1 (stereo not drawn)
TEST VALUE: 1.66
--
COMPOUND: CN1CCCN=C1/C=C/c1cccs1
TEST VALUE: 4.27
--
COMPOUND: COC(=O)Nc1nc2ccc(Sc3ccccc3)cc2[nH]1
TEST VALUE: 6.96

---

Each entry below lists one item and its recorded Mean stability sample ±SD value.
assay: Stability of the analytes in beagle dog plasma (bench top, refrigerator, freeze–thaw, autosampler, short and long term storage); assay type: physicochemical; settings: autosampler, 6°C, 55 h; processed plasma samples; LQC; n = 5

COMPOUND: COC(=O)Nc1nc2ccc([S+]([O-])c3ccccc3)cc2[nH]1 (stereo not shown)
Mean stability sample ±SD (ng/mL): 12.82
//
COMPOUND: O=C(C1CCCCC1)N1CC(=O)N2CCc3ccccc3C2C1 (stereo not shown)
Mean stability sample ±SD (ng/mL): 46.65
//
COMPOUND: COC(=O)Nc1nc2ccc(Sc3ccccc3)cc2[nH]1
Mean stability sample ±SD (ng/mL): 30.26
//
COMPOUND: CN1CCCN=C1/C=C/c1cccs1
Mean stability sample ±SD (ng/mL): 12.87

---

assay: Stability of the analytes in beagle dog plasma (bench top, refrigerator, freeze–thaw, autosampler, short and long term storage); format: physicochemical; conditions: freeze–thaw after 3rd cycle at −80°C; dog plasma; HQC
Each entry below lists one item and its recorded Accuracy value.

COMPOUND: O=C(C1CCCCC1)N1CC(=O)N2CCc3ccccc3C2C1 (stereo not shown)
Accuracy / %: 99.19
//
COMPOUND: CN1CCCN=C1/C=C/c1cccs1
Accuracy / %: 94.84
//
COMPOUND: COC(=O)Nc1nc2ccc([S+]([O-])c3ccccc3)cc2[nH]1 (stereo not shown)
Accuracy / %: 97.23
//
COMPOUND: COC(=O)Nc1nc2ccc(Sc3ccccc3)cc2[nH]1
Accuracy / %: 99.49

---

test: Stability of the analytes in beagle dog plasma (bench top, refrigerator, freeze–thaw, autosampler, short and long term storage); type: physicochemical; details: long term, −80°C, 120 days; dog plasma; HQC; n = 5
Each entry below lists one item and its recorded Mean stability sample ±SD value.

MOLECULE: CN1CCCN=C1/C=C/c1cccs1 [Pyrantel, pyrantel]
Mean stability sample ±SD: 175.05 ± 5.76 ng/mL

MOLECULE: COC(=O)Nc1nc2ccc([S+]([O-])c3ccccc3)cc2[nH]1 (stereo not shown) [Qxfendazole, oxfendazole]
Mean stability sample ±SD: 175.76 ± 5.23 ng/mL

MOLECULE: O=C(C1CCCCC1)N1CC(=O)N2CCc3ccccc3C2C1 (stereo not shown) [Praziquantel, praziquantel]
Mean stability sample ±SD: 615.17 ± 19.69 ng/mL

MOLECULE: COC(=O)Nc1nc2ccc(Sc3ccccc3)cc2[nH]1 [Fenbendazole, fenbendazole]
Mean stability sample ±SD: 455.87 ± 11.17 ng/mL

---

test: Stability of the analytes in beagle dog plasma (bench top, refrigerator, freeze–thaw, autosampler, short and long term storage); type: physicochemical; details: refrigerator, 4°C, 30 h; dog plasma; HQC
Each entry below lists one item and its recorded Accuracy value.

MOLECULE: O=C(C1CCCCC1)N1CC(=O)N2CCc3ccccc3C2C1 (stereo not shown)
Accuracy: 96.95%

MOLECULE: COC(=O)Nc1nc2ccc([S+]([O-])c3ccccc3)cc2[nH]1 (stereo not shown)
Accuracy: 96.84%

MOLECULE: COC(=O)Nc1nc2ccc(Sc3ccccc3)cc2[nH]1
Accuracy: 97.40%

MOLECULE: CN1CCCN=C1/C=C/c1cccs1
Accuracy: 97.21%
